Reported growth at 1 µM values follow for various compounds
Test system: OVCAR-3
protocol_notes: Growth inhibition of human OVCAR-3 cells assessed as cell growth at 1 uM incubated for 48 hrs by sulforhodamine B assay relative to control
Type: functional
measurement_conditions: read-out: Activity
State the result as a value with its unit after it.

Guide cases for growth at 1 µM, answers given:
* CN1CCc2nc3sc(C(N)=O)c(N)c3c(-c3cccs3)c2C1 | 87%
* Cc1cccc(NC(=O)c2sc3nc4c(cc3c2N)C(=O)CCC4)c1 | -7%
* CCc1cccc(C)c1NC(=O)c1sc2nc3c(cc2c1N)C(=O)CCC3 | 10%
* CCc1ccccc1NC(=O)c1sc2nc3c(cc2c1N)C(=O)CCC3 | 12%
* Cc1ccc(NC(=O)c2sc3nc4c(cc3c2N)C(=O)CCC4)cc1C | 3%
* Nc1c(C(=O)Nc2ccccc2)sc2nc3c(cc12)CN(Cc1ccccc1)CC3 | 100%
* Cc1cc(C)c(NC(=O)c2sc3nc4c(cc3c2N)CN(Cc2ccccc2)CC4)c(C)c1 | 76%

Now for another entry.
Endpoint output: growth at 1 µM of COc1cccc(NC(=O)c2sc3nc4c(cc3c2N)CN(Cc2ccccc2)CC4)c1 . Value?
82%

These data points were gathered from ChEMBL document CHEMBL4715736.
